MEASUREMENT_TARGET: UniProt O89049
ASSAY_EXPLANATION: fluorescence quenching (Stern-Volmer) with GST as control; also DTNB assay on recombinant TrxR1, IC50 […]
MEASURED_QUANTITY: Kd (nM)
# output: bare number, implied unit nM

Query block: Specify Kd for CC(=O)CC#[C][Au][P](c1ccccc1)(c1ccccc1)C1CCCCC1 [TRI-03] , system UniProt O89049.
Result block: 310

###

MEASUREMENT_TARGET: TrxR1 (thioredoxin reductase 1) (Rattus norvegicus, UniProt O89049)
Construct: gene Txnrd1
Sequence (O89049 whole entry): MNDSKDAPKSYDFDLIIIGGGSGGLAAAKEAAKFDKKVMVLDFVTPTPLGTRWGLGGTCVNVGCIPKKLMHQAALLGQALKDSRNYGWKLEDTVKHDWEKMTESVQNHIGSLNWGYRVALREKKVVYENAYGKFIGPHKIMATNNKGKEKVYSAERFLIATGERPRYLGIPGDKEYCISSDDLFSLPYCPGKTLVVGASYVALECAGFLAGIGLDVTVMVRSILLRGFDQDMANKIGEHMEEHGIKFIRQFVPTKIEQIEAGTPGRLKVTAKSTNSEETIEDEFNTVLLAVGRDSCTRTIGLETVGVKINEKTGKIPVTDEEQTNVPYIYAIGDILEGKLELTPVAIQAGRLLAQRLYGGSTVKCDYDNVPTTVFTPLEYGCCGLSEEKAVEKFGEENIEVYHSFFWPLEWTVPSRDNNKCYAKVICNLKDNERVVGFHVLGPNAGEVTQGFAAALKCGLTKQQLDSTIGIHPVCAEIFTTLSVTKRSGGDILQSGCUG
ASSAY_EXPLANATION: DTNB assay on purified recombinant TrxR1, […] h incubation
MEASURED_QUANTITY: pIC50
Entry type: numeric. Quantity: pIC50, the -log10 of concentration in molar units.

Query block: Supply measured pIC50 of `CC[P](CC)(CC)=[Au][S][C@@H]1O[C@H](COC(C)=O)[C@@H](OC(C)=O)[C@H](OC(C)=O)[C@H]1OC(C)=O` in your reply.
Result block: 5.83

Reference source: paper PMC12141336
